systemTested: Angiotensin II receptor (Rattus norvegicus) (UniProt P29089+P25095+P35351)
testMethodNotes: Intrinsic myotropic activity at angiotensin 2 receptor in Sprague-Dawley rat uterus relative to [Ile5]angiotensin 2
Square brackets hold non-standard residues; d marks the D form. Peptide text beside a SMILES is read from it. Sar = CNCC(=O)O
attributeMeasured: Intrinsic activity

Need Intrinsic activity for each of these compounds.
1. CC[C@H](C)[C@H](NC(=O)[C@H](Cc1ccc(O)cc1)NC(=O)[C@@H](NC(=O)[C@H](CCCNC(=N)N)NC(=O)CNC)C(C)C)C(=O)N[C@@H](Cc1cnc[nH]1)C(=O)N(C)CC(=O)N[C@@H](CC(C)C)C(=O)O (H-[Sar]RVYIH[Sar]L-OH)
2. CC[C@H](C)[C@H](NC(=O)CN(C)C(=O)[C@H](Cc1cnc[nH]1)NC(=O)[C@@H](NC(=O)[C@H](Cc1ccc(O)cc1)NC(=O)[C@@H](NC(=O)[C@H](CCCNC(=N)N)NC(=O)CNC)C(C)C)[C@@H](C)CC)C(=O)O
3. CC[C@H](C)[C@H](NC(=O)[C@H](Cc1ccc(O)cc1)NC(=O)[C@@H](NC(=O)[C@H](CCCNC(=N)N)NC(=O)CNC)C(C)C)C(=O)N[C@@H](Cc1cnc[nH]1)C(=O)N(C)CC(=O)N[C@@H](C)C(=O)O (H-[Sar]RVYIH[Sar]A-OH)
4. CC[C@H](C)[C@H](NC(=O)[C@H](Cc1ccc(O)cc1)NC(=O)[C@@H](NC(=O)[C@H](CCCNC(=N)N)NC(=O)CNC)C(C)C)C(=O)N[C@@H](Cc1cnc[nH]1)C(=O)N(C)CC(=O)N[C@@H](Cc1ccccc1)C(=O)O (H-[Sar]RVYIH[Sar]F-OH)

Response:
1: < 0.1%; 2: < 0.1%; 3: < 0.1%; 4: 22%
